# assay: Oral bioavailability in Sprague-Dawley rat
# Format: ADME, organism-based
# test-context: in vivo
Quick reference for bioavailability among some compounds
measurement-name: bioavailability (%)

smiles_str=O=C(Nc1ccon1)N1CCN(Cc2cccc(Oc3ccc(Cl)cc3)c2)CC1 measurement_name=bioavailability result_number=50
smiles_str=O=C(Nc1cccnc1)N1CCN(Cc2cccc(Oc3ccc(Br)cc3)c2)CC1 measurement_name=bioavailability result_number=100
smiles_str=O=C(Nc1cnc2ccccn12)N1CCN(Cc2cccc(Oc3ccc(Cl)cc3)c2)CC1 measurement_name=bioavailability result_number=60
smiles_str=O=C(Nc1nnn[nH]1)N1CCN(Cc2cccc(Oc3ccc(Cl)cc3)c2)CC1 measurement_name=bioavailability result_number=100
smiles_str=O=C(Nc1cc[nH]n1)N1CCN(Cc2cccc(Oc3ccc(Cl)cc3)c2)CC1 measurement_name=bioavailability result_number=75
smiles_str=O=C(Nc1cnccc1Cl)N1CCN(Cc2cccc(Oc3ccc(Cl)cc3)c2)CC1 measurement_name=bioavailability result_number=18
smiles_str=O=C(Nc1cccnc1)N1CCN(Cc2cccc(Oc3ccc(F)cc3)c2)CC1 measurement_name=bioavailability result_number=100
smiles_str=O=C(Nc1noc2ccccc12)N1CCN(Cc2cccc(Oc3ccc(Cl)cc3)c2)CC1 measurement_name=bioavailability result_number=44
smiles_str=O=C(Nc1cnccn1)N1CCN(Cc2cccc(Oc3ccc(Cl)cc3)c2)CC1 measurement_name=bioavailability result_number=35
